- experimentalTarget: T1, TACI on transiently transfected cells (human, UniProt O14836 1-293)
- T1 construct: whole, on cells; also called huTACI
- T1 sequence (looked up): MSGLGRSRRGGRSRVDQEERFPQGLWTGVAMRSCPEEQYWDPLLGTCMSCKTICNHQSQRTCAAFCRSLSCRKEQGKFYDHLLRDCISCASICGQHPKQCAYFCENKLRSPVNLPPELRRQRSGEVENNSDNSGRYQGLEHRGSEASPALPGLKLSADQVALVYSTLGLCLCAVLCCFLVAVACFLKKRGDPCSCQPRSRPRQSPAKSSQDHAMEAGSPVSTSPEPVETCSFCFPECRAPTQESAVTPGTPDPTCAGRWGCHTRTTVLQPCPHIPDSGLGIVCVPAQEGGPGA
- testProtocol: FACS, hu TACI
Please go through the items and note down their MFI.
# number only, unit MFI dropped from output

Summary for this binder, 29C12 (antibody, V domains shown, IgG2 or IgG4 as purified from hybridoma (29C12.1); later converted to human IgG1; an engineered version may be meant there; also called 29C12.1; Ab-8) VH: EVQLLESGGALVQPGGSLRLSCAASGFTFSSYAMNWVRQAPGKGLEWVSAISVGGDTYYADSVKGRFTISRDNSKNTLYLQMNSLRAEDTAVYYCAKDQVTMVRGVWYYYGLDVWGQGTTVTVSS VL: DIVMIQSPLSLPVTPGEPASISCRSSQSLLHSNGNNYLDWYLQKPGQSPHLLISLGSNRTSGVPDRFSGSGSGTDFTLKISRVEAEDVGVYYCMQALQPPRRFGQGTKLEIKR : MFI is 256

Summary for this binder, 35D2 (antibody, V domains shown, IgG2 or IgG4, purified from hybridoma supernatant; also called 35D2.1; Ab-15) VH: EVQLLESGGALVQPGGSLRLSCAASGFTFSSYAMNWVRQAPGKGLEWVSAISVGGGTYYADSVKGRFTISRDNSKNTLYLHVNSLRAEDTAVYYCAKDQVTMVRGVWYYYGLDVWGQGTTVTVSS VL: VIVLIQSPLSLPVTPGEPASISCRSSQSLLHSNGNNYLDWYLQKPGQSPHLLISLGSNRTSGVPDRFSGSGSGTDFTLKISRVEAEDVGFYYCMQALQPPRRFGQGTKLEIKR : MFI is 506

Summary for this binder, 37B2 (antibody, V domains shown, IgG2 or IgG4, purified from hybridoma supernatant; also called 37B2.1; Ab-16) VH: EVQLLESGGALVQPGGSLRLSCAASGFTFSNYAMNWVRQAPGKGLEWVSAISVGGDTYYADSVKGRFTISRDNSKNTLYLHVNSLSAEDSAVYYCAKDQVTLVRGVWYYYGLDVWGQGTTVTVSS VL: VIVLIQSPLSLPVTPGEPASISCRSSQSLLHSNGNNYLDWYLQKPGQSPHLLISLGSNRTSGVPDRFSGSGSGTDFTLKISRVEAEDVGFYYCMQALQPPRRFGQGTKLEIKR : MFI is 1040

Summary for this binder, 32B5 (antibody, V domains shown, IgG2 or IgG4 as purified from hybridoma (32B5.1); later converted to human IgG1; an engineered version may be meant there; also called 32B5.1; Ab-10) VH: EVQLLESGGALVQPGGSLRLSCAASGFTFSSYAMNWVRQAPGKGLEWVSAISVGGDTYYADSVKGRFTISRDNSKNTLYLHVNSLSAEDSAVYYCAKDQVTLVRGVWYYYGLDVWGQGTTVTVSS VL: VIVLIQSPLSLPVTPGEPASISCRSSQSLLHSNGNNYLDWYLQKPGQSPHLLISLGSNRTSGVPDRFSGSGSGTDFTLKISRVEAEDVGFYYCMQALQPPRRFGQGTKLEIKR : MFI is 274
